Data provenance: PubChem BioAssay AID1159580

experiment: chemical genetic growth profiling, strain panel (AID 1159580);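 also: tested at 20 µM; growth read once vehicle control cultures reached saturation at 30 °C; 1 = growth at the plate median or of vehicle wells; lower values mean less growth of the strain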; settings: S. cerevisiae deletion strains, growth OD, locus YLR268W, strain sec22, hits give low values
Out of some 5,500 compounds screened, about 2,000 (36%) were called active. Not shown: some 18% with an inconclusive outcome. Some of the results follow.
Assay metric: normalized growth

COC(=O)C[C@H]1C(C)(C)C(OC(C)=O)[C@]2(O)C=C3C4CC(=O)O[C@@H](c5ccoc5)[C@]4(C)CCC3[C@@]1(C)C2=O (stereo not given in full) :: 1.01 (inactive)
COc1cc2ccc(=O)oc2c(OC)c1OC :: 1.03 (inactive)
O=c1[nH]c2ccccc2n1C1CCN(CCCC(c2ccc(F)cc2)c2ccc(F)cc2)CC1 :: 0.98 (inactive)

Please give normalized growth, item by item, for the list that follows.
1. CC(C)CCCC(C)C1CCC2C3CCC4CC(=O)CCC4(C)C3CCC12C (stereo not given)
2. O=C1OC(=O)C2C3CCC(O3)C12 (stereo not given)
3. CC(=O)OCC(=O)[C@@]1(O)CCC2C3CCC4=CC(=O)CC[C@]4(C)[C@@]3(F)[C@@H](O)C[C@@]21C (stereo not given in full)

1. 1.06 (inactive)
2. 0.979 (inactive)
3. 0.985 (inactive)

Field: normalized growth. Fill in for each record below.
1. N#C/C(=C\c1ccc(O)cc1)C(=O)O
2. CC(=O)OC1CCC23C(=O)OC45CCC(C6=CC(=O)OC6)C4(C)CCC2C5CCC3(O)C1 (stereo not given)

1: 0.985 (inactive); 2: 1.02 (inactive)

Provide the reported normalized growth of each entry below, same order.
1. CC(C)=CCOc1c2occc2cc2ccc(=O)oc12
2. CC(C)=CCOc1cc2oc(=O)ccc2cc1O

0.695 (active)
0.9 (inactive)
